Provide the recorded TLR8 100 nM (averaged NF-κB-Luciferase level relative to R848 condition, fold increase) for the entries that follow.
- Target entity: TLR8 (Homo sapiens)
- Sequence (Q9NR97 27-1041): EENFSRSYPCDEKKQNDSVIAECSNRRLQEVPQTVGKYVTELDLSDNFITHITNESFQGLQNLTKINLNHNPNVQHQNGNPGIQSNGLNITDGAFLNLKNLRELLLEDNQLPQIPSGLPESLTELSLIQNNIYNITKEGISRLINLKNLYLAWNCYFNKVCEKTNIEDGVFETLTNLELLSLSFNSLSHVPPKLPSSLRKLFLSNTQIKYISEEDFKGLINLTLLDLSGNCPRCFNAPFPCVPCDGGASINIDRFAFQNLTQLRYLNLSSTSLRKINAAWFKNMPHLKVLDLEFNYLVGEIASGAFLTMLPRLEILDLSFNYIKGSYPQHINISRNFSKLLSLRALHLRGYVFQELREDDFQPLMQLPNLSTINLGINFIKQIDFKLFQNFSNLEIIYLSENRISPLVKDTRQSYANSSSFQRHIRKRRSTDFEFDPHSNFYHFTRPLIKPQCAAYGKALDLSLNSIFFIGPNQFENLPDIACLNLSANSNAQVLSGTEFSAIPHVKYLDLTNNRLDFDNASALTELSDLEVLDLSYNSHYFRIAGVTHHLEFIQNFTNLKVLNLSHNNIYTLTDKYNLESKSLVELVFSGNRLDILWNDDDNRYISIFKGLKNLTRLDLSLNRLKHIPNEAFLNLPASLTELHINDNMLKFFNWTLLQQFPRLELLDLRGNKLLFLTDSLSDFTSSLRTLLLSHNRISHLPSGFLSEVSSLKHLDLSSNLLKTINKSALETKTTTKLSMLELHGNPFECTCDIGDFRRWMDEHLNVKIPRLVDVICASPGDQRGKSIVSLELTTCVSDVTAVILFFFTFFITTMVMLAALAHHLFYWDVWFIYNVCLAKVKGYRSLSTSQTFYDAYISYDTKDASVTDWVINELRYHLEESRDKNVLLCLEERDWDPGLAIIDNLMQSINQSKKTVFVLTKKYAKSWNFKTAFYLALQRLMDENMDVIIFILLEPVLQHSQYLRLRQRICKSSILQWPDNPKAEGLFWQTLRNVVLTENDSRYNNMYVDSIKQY
- Procedure details: HEK-TLR8 NF-κB-luciferase reporter, R848 or Motolimod stimulation (potentiation or inhibition)
- Format: cell-based
- Set-up: expressed in transfected cells; host or cells: 293XLhTLR8 (HEK293)
- Test context: ASO 100 nM; relative to R848 only
// keep it numeric: no unit symbol after the value

Ask: TLR8 100 nM (averaged NF-κB-Luciferase level relative to R848 condition, fold increase) lookup needed for TCGTGGGGTCCTTTTC (antisense; LNA-modified, pattern not given here) [HPRT LNA-660 V1] , thanks.
Result: 0.778

Ask: Can you check CCAGCAGGTCAGCAAA (antisense; LNA-modified, pattern not given here) [HPRT LNA-388 KL] next?
Result: 0.412

Ask: Moving on to the next sequence: AACACTTCGTGGGGTC (antisense; LNA-modified, pattern not given here) [HPRT LNA-666 V1]
Result: 0.496

Ask: Next record, please: AGCTTCGAGGCCCCAG (antisense; LNA-modified, pattern not given here) [MB21D1-616 LNA V1]
Result: 0.331

Ask: Field entry: ATCTGGCAGCCCATCA (antisense; LNA-modified, pattern not given here) [CTNN2B-2516 LNA V1]
Result: 0.808

Ask: Entry TGGCCTCCCATCTCCT (antisense; LNA-modified, pattern not given here) [HPRT LNA-329 V1] please
Result: 0.495

Ask: Quick one: GCATCCACCACGTCGT (antisense; LNA-modified, pattern not given here) [EGFR-3267 LNA V1]
Result: 0.607

Data provenance is patent US20240384268A1.
